perc_inhibition_mean by entry:
Target: SARS-CoV-2 nsp3-mac1 (Severe acute respiratory syndrome coronavirus 2, UniProt P0DTD1)
Assay: biochemical
Format: biochemical
Details: SARS-CoV-2 nsp3 macrodomain TR-FRET single point; concentration 99.5 uM
Give the number; % is assumed, so skip it.

Answered examples (7):
O=C1CCN(C(=O)c2cnn3ccc(C4CCN(C(=O)c5ccccc5)CC4)cc23)CCN1; -7.808
O=C(c1cccnc1S)N1CCC(c2ccn3ncc(C(=O)N4CCCCC4)c3c2)CC1; 52.653
CC(C)[C@H]1CNC(=O)CN1c1ncnc2[nH]ccc12; 17.564
O=C(N[C@@H]1COCC[C@H]1O)c1cnn2ccc(C3CCN(C(=O)c4ccccc4)CC3)cc12; -4.477
O=C(O)c1ccc(C(=O)N2CCC(c3ccn4ncc(C(=O)N5CCCCC5)c4c3)CC2)o1; 58.121
O=C(O)c1cnc(C(=O)N2CCC(c3ccn4ncc(C(=O)N5CCCCC5)c4c3)CC2)cn1; 46.435
CC(C)[C@@H](Nc1ncnc2[nH]ccc12)c1nc2ccccc2[nH]1; 52.508

Read the next record carefully.
Give its perc_inhibition_mean value. Item: `CC(C)[C@@H](Nc1ncnc2[nH]ccc12)C(N)=O`
77.698
